// cross-source set; read-out = pIC50; system = Thymidylate synthase (Mus musculus, UniProt P07607)
Sequence (P07607 whole entry): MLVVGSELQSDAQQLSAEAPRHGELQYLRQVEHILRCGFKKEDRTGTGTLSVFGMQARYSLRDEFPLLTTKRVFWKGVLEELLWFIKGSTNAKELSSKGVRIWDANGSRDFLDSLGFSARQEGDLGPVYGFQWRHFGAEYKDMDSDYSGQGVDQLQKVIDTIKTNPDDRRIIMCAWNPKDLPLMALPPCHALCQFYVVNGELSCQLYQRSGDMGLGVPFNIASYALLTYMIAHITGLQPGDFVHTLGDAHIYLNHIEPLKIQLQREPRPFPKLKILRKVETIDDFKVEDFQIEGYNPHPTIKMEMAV
Numbers only, as −log10 of the molar value.

Worked cases, pIC50 given:
| smiles_entry | assay_readout | value_reported |
| --- | --- | --- |
| C#CCN(Cc1ccc2nc(C)[nH]c(=O)c2c1)c1ccc(C(=O)N[C@@H](CCC(=O)O)C(=O)O)cc1F | pIC50 | 5.84 |
| CN(Cc1ccc2nc(CO)nc(O)c2c1)c1ccc(C(=O)N[C@H](CCC(=O)O)C(=O)O)s1 | pIC50 | 5.87 |
| Cc1nc2ccc(CN(CCF)c3ccc(C(=O)N[C@@H](CCC(=O)O)C(=O)O)c(F)c3)cc2c(=O)[nH]1 | pIC50 | 7.37 |
| C#CCN(Cc1ccc2nc(C)[nH]c(=O)c2c1)c1ccc(C(=O)N[C@@H](CCC(=O)O)C(=O)O)c(OC)c1 | pIC50 | 7.17 |
| Cc1nc2ccc(CNc3ccc(C(=O)N[C@@H](CCC(=O)O)C(=O)O)cc3F)cc2c(=O)[nH]1 | pIC50 | 5.03 |

Please give pIC50, item by item, for the list that follows.
1. Cc1nc(O)c2cc(N(C)Cc3ccc(C(=O)N[C@@H](CCC(=O)O)C(=O)O)cc3)ccc2n1
2. CCN(Cc1ccc2nc(C)nc(O)c2c1)c1ncc(C(=O)N[C@H](CCC(=O)O)C(=O)O)s1

Return:
5.58
6.12

Quick one: give me pIC50 for each item below, same order please.
1. Cc1nc(O)c2cc(CSc3ccc(C(=O)N[C@@H](CCC(=O)O)C(=O)O)cc3)ccc2n1
2. C#CCN(Cc1ccc2nc(C)[nH]c(=O)c2c1)c1ccc(C(=O)N[C@@H](CCC(=O)O)C(=O)O)c(Cl)c1

Return:
5.33
7.13
